assay: Plasma pharmacokinetics, single dose as 30-min i.v. infusion, study 1 part I, healthy men; settings: male, human, plasma, intravenous, 25 mg, Vz, relebactam 25 mg alone, single dose
quantity measured: Vd (L)
Write the number in L without appending the unit.

Report measured Vd; entry is O=C(NC1CCNCC1)[C@@H]1CC[C@@H]2CN1C(=O)N2OS(=O)(=O)O
18.3

----------
test: Plasma pharmacokinetics, single dose as 30-min i.v. infusion, study 1 part I, healthy men; conditions: male, human, plasma, intravenous, 1000 mg, CL, relebactam 1,000 mg alone, single dose
quantity measured: clearance (mL/min)
Write the number in mL/min without appending the unit.

Report measured clearance; entry is O=C(NC1CCNCC1)[C@@H]1CC[C@@H]2CN1C(=O)N2OS(=O)(=O)O [Relebactam]
130

----------
assay: clinical; details: male, human, in vivo, geometric mean terminal t1/2, range
quantity measured: half-life

Report measured half-life; entry is O=C(NC1CCNCC1)[C@@H]1CC[C@@H]2CN1C(=O)N2OS(=O)(=O)O
1.42 to 1.85 h

----------
experiment: Plasma pharmacokinetics, single dose as 30-min i.v. infusion, study 1 part I, healthy men; details: male, human, plasma, intravenous, 50 mg, AUC0–∞, relebactam 50 mg alone, single dose
quantity measured: AUC(0-inf)
Report the figure along with its unit, number first.

Report measured AUC(0-inf); entry is O=C(NC1CCNCC1)[C@@H]1CC[C@@H]2CN1C(=O)N2OS(=O)(=O)O
15.6 µM·h

----------
test: Plasma pharmacokinetics, single dose as 30-min i.v. infusion, study 1 part I, healthy men; conditions: male, human, plasma, intravenous, 250 mg, CL, relebactam 250 mg alone, single dose
quantity measured: clearance (mL/min)
Write the number in mL/min without appending the unit.

Report measured clearance; entry is O=C(NC1CCNCC1)[C@@H]1CC[C@@H]2CN1C(=O)N2OS(=O)(=O)O [Relebactam]
148

----------
assay: clinical; conditions: male, human, in vivo, 500 mg
quantity measured: half-life (min)
Write the number in min without appending the unit.

Report measured half-life; entry is CC1(C)C[C@@H]1C(=O)N/C(=C\CCCCSC[C@H](N)C(=O)O)C(=O)O [Cilastatin]
55.2

----------
experiment: Plasma pharmacokinetics, single dose as 30-min i.v. infusion, study 1 part I, healthy men; details: male, human, plasma, intravenous, 500 mg, AUC0–∞, relebactam 500 mg alone, single dose;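 also: plasma analyte levels quantified by HILIC with tandem mass spectrometry, parameters derived noncompartmentally in WinNonlin, AUC by linear-up log-down trapezoidal rule, clearance taken as dose over AUC0–∞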
quantity measured: AUC(0-inf) (µM·h)
Write the number in µM·h without appending the unit.

Report measured AUC(0-inf); entry is O=C(NC1CCNCC1)[C@@H]1CC[C@@H]2CN1C(=O)N2OS(=O)(=O)O [Relebactam]
180

----------
test: clinical; conditions: male, human, in vivo, 1150 mg, CLR
quantity measured: CL renal (mL/min)
Write the number in mL/min without appending the unit.

Report measured CL renal; entry is O=C(NC1CCNCC1)[C@@H]1CC[C@@H]2CN1C(=O)N2OS(=O)(=O)O [Relebactam]
137

----------
conditions: male, human, in vivo, AUC0-6, 500 mg relebactam + 500 mg imipenem/cilastatin, panel J, day 1
quantity measured: AUC(0-t) (µM·h)
Write the number in µM·h without appending the unit.

Report measured AUC(0-t); entry is CC1(C)C[C@@H]1C(=O)N/C(=C\CCCCSC[C@H](N)C(=O)O)C(=O)O
106

----------
settings: male, human, in vivo, Terminal t1/2, 250 mg relebactam + 500 mg imipenem/cilastatin, panel F, day 1
quantity measured: half-life (min)
Write the number in min without appending the unit.

Report measured half-life; entry is CC1(C)C[C@@H]1C(=O)N/C(=C\CCCCSC[C@H](N)C(=O)O)C(=O)O
59.9
